Consider compounds characterized by their pKi with 5-hydroxytryptamine receptor 2B (Homo sapiens, UniProt P41595).
Sequence (P41595 whole entry): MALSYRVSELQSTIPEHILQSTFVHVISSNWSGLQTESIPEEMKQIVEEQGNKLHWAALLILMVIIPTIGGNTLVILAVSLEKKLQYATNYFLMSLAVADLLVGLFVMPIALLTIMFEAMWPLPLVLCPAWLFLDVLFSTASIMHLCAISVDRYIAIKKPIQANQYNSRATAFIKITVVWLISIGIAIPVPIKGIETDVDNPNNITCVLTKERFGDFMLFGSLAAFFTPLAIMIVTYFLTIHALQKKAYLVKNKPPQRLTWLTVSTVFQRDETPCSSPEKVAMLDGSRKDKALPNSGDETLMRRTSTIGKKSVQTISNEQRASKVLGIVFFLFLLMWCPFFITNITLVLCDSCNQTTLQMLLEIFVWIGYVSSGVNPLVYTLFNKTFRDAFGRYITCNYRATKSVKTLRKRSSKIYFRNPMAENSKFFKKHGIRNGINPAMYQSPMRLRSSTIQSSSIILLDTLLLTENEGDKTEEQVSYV
Please report pKi as the negative decimal logarithm of the molar concentration, giving only the number.

>  <CHEMICAL STRING>
CC(C)[C@@H](Nc1nc(Cl)nc2c1ncn2[C@H]1[C@H](O)[C@H](O)[C@]2(CF)C[C@H]12)C1CC1

>  <MEASURED ENDPOINT>
pKi

>  <QUANTITATIVE READOUT>
6.03

$$$$

Request: Indicate the recorded pKi value for this compound: `CC(C)[C@@H](Nc1nc(I)nc2c1ncn2[C@H]1[C@H](O)[C@H](O)[C@]2(CO)C[C@H]12)C1CC1`
Response: 6.77

====

ASSAY EXPLANATION: in vitro
ASSAY SETUP: monkey, Vero 76 cells
Measured selectivity ratio of individual entries
Answer as a number with no unit attached.

>  <CHEMICAL STRING>
CC(C)[C@@H](Nc1nc(Cl)nc2c1ncn2[C@H]1[C@H](O)[C@H](O)[C@]2(CF)C[C@H]12)C1CC1

>  <selectivity ratio>
10

$$$$
>  <CHEMICAL STRING>
CC(C)[C@@H](Nc1nc(Cl)nc2c1ncn2[C@H]1[C@H](O)[C@H](O)[C@]2(CCl)C[C@H]12)C1CC1

>  <selectivity ratio>
7.4

$$$$

// switching to the query compound
Request: Supply recorded selectivity ratio for `CC(C)[C@@H](Nc1nc(I)nc2c1ncn2[C@H]1[C@H](O)[C@H](O)[C@]2(CO)C[C@H]12)C1CC1` here.
Response: 5.6

====

ASSAY EXPLANATION: Cytotoxicity against monkey Vero 76 cells by neutral red uptake assay
Assay type: cell-based
ASSAY SETUP: chlorocebus sabaeus, Vero 76 cells
MEASURED ENDPOINT: CC50 (µM)
Enter your answer as a number in µM; do not include the unit.

Request: Kindly indicate its recorded CC50. Item: `OC[C@@]12C[C@@H]1[C@@H](n1ccc3c(NC(C4CCC4)C4CCC4)nc(Cl)nc31)[C@H](O)[C@@H]2O`
Response: 86

====

# CC50 annotations
Test system: RD
ASSAY EXPLANATION: Cytotoxicity against human RD cells by neutral red uptake assay
Type: cell-based
Supply the numeric figure in µM, leaving out any unit text.

Request: Look up CC50 of `CC(C)S(=O)(=O)n1c(N)nc2ccc(/C(=N/O)c3ccccc3)cc21` and report it.
Response: 1.5

Request: For `CC(C)[C@@H](Nc1nc(Cl)nc2c1ncn2[C@H]1[C@H](O)[C@H](O)[C@]2(CF)C[C@H]12)C1CC1` , write its CC50.
Response: 42

Request: Tell me measured CC50 for `O[C@@H]1[C@H](O)[C@@H]2C[C@@H]2[C@H]1n1cnc2c(NC(C3CC3)C3CC3)nc(Cl)nc21` please.
Response: 41

====

ASSAY EXPLANATION: Selectivity index, ratio for CC50 of monkey Vero 76 cells to EC50 for Coxsackie virus B3 HA 201 933 by visual inspection method
Format: toxicity
ASSAY SETUP: read-out: Ratio CC50/EC50
MEASURED ENDPOINT: selectivity ratio

Request: Give the measured selectivity ratio for `CC(C)S(=O)(=O)n1c(N)nc2ccc(/C(=N/O)c3ccccc3)cc21`
Response: > 1000

====

ASSAY EXPLANATION: Selectivity index, ratio of CC50 for human RD cells to EC50 for Enterovirus D68 US/KY/14-18953 strain
Type: toxicity
ASSAY SETUP: read-out: Ratio CC50/EC50
MEASURED ENDPOINT: selectivity ratio
// print number alone

Request: Provide one value: measured selectivity ratio of CC(C)S(=O)(=O)n1c(N)nc2ccc(/C(=N/O)c3ccccc3)cc21 [ENVIROXIME]
Response: 130

====

ASSAY EXPLANATION: in vitro
ASSAY SETUP: monkey, Vero 76 cells
Measured selectivity ratio by item
Reply: number alone, nothing else.

Consider the following illustrative entries.
>  <COMPOUND>
O[C@@H]1[C@H](O)[C@@H]2C[C@@H]2[C@H]1n1cnc2c(NC(C3CC3)C3CC3)nc(Cl)nc21

>  <selectivity ratio>
10

$$$$
>  <COMPOUND>
CC(C)[C@@H](Nc1nc(Cl)nc2c1ncn2[C@H]1[C@H](O)[C@H](O)[C@]2(CCl)C[C@H]12)C1CC1

>  <selectivity ratio>
6.9

$$$$
>  <COMPOUND>
CCOC(=O)c1ccc(OCCC2CCN(c3ccc(C)nn3)CC2)cc1 [PIRODAVIR]

>  <selectivity ratio>
30

$$$$

Request: Using known records, supply selectivity ratio for `CC(C)[C@@H](Nc1nc(I)nc2c1ncn2[C@H]1[C@H](O)[C@H](O)[C@]2(CO)C[C@H]12)C1CC1`
Response: 2.3

Request: Please look at this compound and report its selectivity ratio: `O[C@@H]1[C@H](O)[C@@H]2C[C@@H]2[C@H]1n1cnc2c(N[C@H](CC3CC3)C3CC3)nc(Cl)nc21`
Response: 1.2

====

Tested on: Coxsackievirus
ASSAY EXPLANATION: Antiviral activity against Coxsackie virus B3 HA 201 933 infected in Vero 76 cells assessed as reduction in virus yield by visual inspection method
Assay type: functional, organism-based
ASSAY SETUP: B3 HA 201 933, Vero 76
MEASURED ENDPOINT: EC50 (µM)
API: value field is a number in µM; no unit string.

Request: Recall and state the measured EC50 for `CC(C)[C@@H](Nc1nc(Cl)nc2c1ncn2[C@H]1[C@H](O)[C@H](O)[C@]2(CO)C[C@H]12)C1CC1` .
Response: 16

====

System: Vero 76
ASSAY EXPLANATION: Cytotoxicity against monkey Vero 76 cells by microscopic analysis
Format: cell-based
ASSAY SETUP: chlorocebus sabaeus, vero 76
Reported CC50 values for a set of compounds

Observe how each entry below is paired with its result.
>  <CHEMICAL STRING>
CSc1nc(N[C@H](C(C)C)C2CC2)c2ncn([C@H]3[C@H](O)[C@H](O)[C@]4(CO)C[C@H]34)c2n1

>  <TESTED SYSTEM>
Vero 76

>  <RESULT>
> 100 µM

$$$$
>  <CHEMICAL STRING>
CC(C)[C@@H](Nc1nc(Cl)nc2c1ncn2[C@H]1[C@H](O)[C@H](O)[C@]2(CF)C[C@H]12)C1CC1

>  <TESTED SYSTEM>
Vero 76

>  <RESULT>
36 µM

$$$$

Request: Supply measured CC50 of `COC(=O)c1cnn(-c2nc(NC(C3CC3)C3CC3)c3ncn([C@H]4[C@H](O)[C@H](O)[C@@H]5C[C@@H]54)c3n2)c1` in your reply.
Response: > 50 µM

Request: For the compound `OC[C@H]1O[C@@H](n2cnc3c(NC(C4CCC4)C4CCC4)nc(Cl)nc32)[C@H](O)[C@@H]1O` , give its reported CC50.
Response: 32 µM

Request: Using known records, supply CC50 for `OC[C@@]12C[C@@H]1[C@@H](n1cnc3c(NC(C4CCC4)C4CCC4)nc(Cl)nc31)[C@H](O)[C@@H]2O`
Response: 50 µM

Request: Name the recorded CC50 of the item `CC(C)[C@H](Nc1nc(Cl)nc2c1ncn2[C@H]1[C@H](O)[C@H](O)[C@]2(CO)C[C@H]12)C1CC1` in your answer.
Response: > 50 µM

Request: State its CC50 for this compound: `O[C@@H]1[C@H](O)[C@@H]2C[C@@H]2[C@H]1n1cnc2c(NC(C3CC3)C3CC3)ncnc21`
Response: > 50 µM

====

ASSAY EXPLANATION: Selectivity index, ratio for CC50 of monkey Vero 76 cells to EC50 for Coxsackie virus B3 HA 201 933 by neutral red uptake assay
Format: toxicity
ASSAY SETUP: read-out: Ratio CC50/EC50
MEASURED ENDPOINT: selectivity ratio

Request: # return recorded selectivity ratio for entry `CC(C)S(=O)(=O)n1c(N)nc2ccc(/C(=N/O)c3ccccc3)cc21`
Response: > 450

====

ASSAY EXPLANATION: in vitro
ASSAY SETUP: monkey, Vero 76 cells
Reported selectivity ratio by item:

>  <CHEMICAL STRING>
CC(C)[C@@H](Nc1nc(Cl)nc2c1ncn2[C@H]1[C@H](O)[C@H](O)[C@]2(CN=[N+]=[N-])C[C@H]12)C1CC1

>  <selectivity ratio>
6

$$$$
>  <CHEMICAL STRING>
OC[C@@]12C[C@@H]1[C@@H](n1ccc3c(NC(C4CCC4)C4CCC4)nc(Cl)nc31)[C@H](O)[C@@H]2O

>  <selectivity ratio>
> 3.1

$$$$

Request: Please supply the value of reported selectivity ratio for the item `O[C@@H]1[C@H](O)[C@@H]2C[C@@H]2[C@H]1n1cnc2c(N[C@H](CC3CC3)C3CC3)nc(Cl)nc21`
Response: > 2.4

Request: Read off the recorded selectivity ratio for `OC[C@@]12C[C@@H]1[C@@H](n1cnc3c(N[C@@H](C4CCC4)C4CC4)nc(Cl)nc31)[C@H](O)[C@@H]2O`
Response: > 3.1

Request: Write down selectivity ratio measured for item `O[C@@H]1[C@H](O)[C@@H]2C[C@@H]2[C@H]1n1cnc2c(N[C@@H](CC3CC3)C3CC3)nc(Cl)nc21`
Response: > 2.8

Request: Assign selectivity ratio to the following record: `OC[C@@]12C[C@@H]1[C@@H](n1cnc3c(NC(C4CCC4)C4CCC4)nc(Cl)nc31)[C@H](O)[C@@H]2O`
Response: 3.1

Request: Annotate the compound `CC[C@@H](Nc1nc(SC)nc2c1ccn2[C@H]1[C@H](O)[C@H](O)[C@]2(CO)C[C@H]12)C1CC1` with its measured selectivity ratio.
Response: > 3.1

Request: Specify measured selectivity ratio for `CC[C@H](Nc1nc(Cl)nc2c1ncn2[C@H]1[C@H](O)[C@H](O)[C@]2(CO)C[C@H]12)C1CC1` .
Response: > 3.1
